Reported values of IC50 for individual entries
TARGET: AuroraB (Homo sapiens)
Construct: 20 µL of AuroraB FL His; His
Sequence (Q96GD4 whole entry): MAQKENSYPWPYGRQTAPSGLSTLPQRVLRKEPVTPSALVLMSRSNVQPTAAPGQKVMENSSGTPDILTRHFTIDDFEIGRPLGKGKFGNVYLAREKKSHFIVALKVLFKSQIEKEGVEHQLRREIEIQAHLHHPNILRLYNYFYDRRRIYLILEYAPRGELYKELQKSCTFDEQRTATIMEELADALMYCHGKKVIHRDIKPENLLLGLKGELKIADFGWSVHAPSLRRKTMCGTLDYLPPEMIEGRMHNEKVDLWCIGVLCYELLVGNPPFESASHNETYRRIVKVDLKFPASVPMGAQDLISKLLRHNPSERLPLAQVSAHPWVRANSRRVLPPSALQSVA
ASSAY_TEXT: AuroraB Homogeneous Time Resolved Fluorescent (HTRF) kinase assay
Type: biochemical
ASSAY_CONTEXT: average; given as class symbols; read-out: AurB_ _IC50_IP (Avg)

Solved cases (2 shown):
Nc1nccc(-c2ccccc2Oc2ccc(Nc3nnc(-c4ccccc4)c4ccccc34)cc2)n1    ≤ 100 nM
Cc1csc(-c2cc(C)c(Nc3ccc(Oc4ncccc4-c4ccnc5c4CCCN5)cc3)nn2)n1    500 to 2500 nM

q: Param readout= IC50; system= AuroraB (Homo sapiens); entry= O=C(O)CCNc1nccc(-c2cccnc2Oc2ccc(Nc3nnc(-c4ccccc4)c4ccccc34)cc2)n1 ; returns value.
a: 500 to 2500 nM

q: What about this molecule? Cc1cccc(-c2nnc(Nc3ccc(Oc4ncccc4-c4ccnc(NCCCN5CCCCC5)n4)cc3)c3ccccc23)n1
a: ≤ 100 nM

q: What about this molecule? Nc1nccc(-c2cccnc2Oc2ccc(Nc3nnc(N4CCN5CCC[C@H]5C4)c4ccccc34)cn2)n1
a: ≤ 100 nM

q: What about this molecule? CC1CN(CCCNc2nccc(-c3cccnc3Oc3ccc(Nc4nnc(-c5ccccc5)c5ccccc45)cc3)n2)CC(C)O1 (stereo not drawn)
a: ≤ 100 nM

q: What about this molecule? COc1cccc(-c2nnc(Nc3ccc(Oc4ncccc4-c4ccnc(N)n4)cc3)c3ccccc23)n1
a: ≤ 100 nM
